Data origin, for the record: patent US20200339625A1

- Test system: mice bearing PSMA-expressing LNCAP cancer xenografts
- Assay text: Biodistribution of 68Ga-labeled compounds
- Type: in vivo
- Settings: 1 h post-injection
Provide the reported Liver uptake of each item.

The examples below pair each entry with its known result.
[[record]]
molecule = "O=C([O-])CN1CCN(CC(=O)[O-])CCN(CC(=O)NCCCC[C@H](NC(=O)CNC(=O)CCCc2ccccc2)C(=O)NC[C@H]2CC[C@H](C(=O)N[C@@H](Cc3ccc4ccccc4c3)C(=O)NCCCC[C@H](NC(=O)N[C@@H](CCC(=O)O)C(=O)O)C(=O)O)CC2)CCN(CC(=O)[O-])CC1.[68Ga+3] [^68Ga-HTK03056]"
measurement_kind = "Liver uptake"
assay_value = "1.02 ± 0.34 % ID/g"

[[record]]
molecule = "O=C([O-])CN1CCN(CC(=O)[O-])CCN(CC(=O)NCC2CCC(C(=O)NC(Cc3ccc4ccc5cccc6ccc3c4c56)C(=O)NCCCCC(NC(=O)NC(CCC(=O)O)C(=O)O)C(=O)O)CC2)CCN(CC(=O)[O-])CC1.[68Ga+3] (centres unmarked) [^68Ga-HTK03029]"
measurement_kind = "Liver uptake"
assay_value = "1.32 ± 0.63 % ID/g"

[[record]]
molecule = "O=C([O-])CN1CCN(CC(=O)[O-])CCN(CC(=O)NCC2CCC(C(=O)NC(Cc3c4ccccc4cc4ccccc34)C(=O)NCCCCC(NC(=O)NC(CCC(=O)O)C(=O)O)C(=O)O)CC2)CCN(CC(=O)[O-])CC1.[68Ga+3] (centres unmarked) [^68Ga-HTK03041]"
measurement_kind = "Liver uptake"
assay_value = "1.38 ± 0.25 % ID/g"

[[record]]
molecule = "O=C([O-])CN1CCN(CC(=O)[O-])CCN(CC(=O)NCCCC[C@H](NC(=O)CNC(=O)CCCc2ccc(I)cc2)C(=O)NC[C@H]2CC[C@H](C(=O)N[C@@H](Cc3ccc4ccccc4c3)C(=O)NCCCC[C@H](NC(=O)N[C@@H](CCC(=O)O)C(=O)O)C(=O)O)CC2)CCN(CC(=O)[O-])CC1.[68Ga+3] [^68Ga-HTK03024]"
measurement_kind = "Liver uptake"
assay_value = "3.71 ± 0.38 % ID/g"

[[record]]
molecule = "O=C([O-])CN1CCN(CC(=O)[O-])CCN(CC(=O)NCC2CCC(C(=O)NC(Cc3ccc4cc5ccccc5cc4c3)C(=O)NCCCCC(NC(=O)NC(CCC(=O)O)C(=O)O)C(=O)O)CC2)CCN(CC(=O)[O-])CC1.[68Ga+3] (centres unmarked) [^68Ga-HTK03027]"
measurement_kind = "Liver uptake"
assay_value = "0.46 ± 0.10 % ID/g"

[[record]]
molecule = "Cc1ccc(CCCC(=O)NCC(=O)N[C@@H](CCCCNC(=O)CN2CCN(CC(=O)[O-])CCN(CC(=O)[O-])CCN(CC(=O)[O-])CC2)C(=O)NC[C@H]2CC[C@H](C(=O)N[C@@H](Cc3ccc4ccccc4c3)C(=O)NCCCC[C@H](NC(=O)N[C@@H](CCC(=O)O)C(=O)O)C(=O)O)CC2)cc1.[68Ga+3] [^68Ga-HTK03090]"
measurement_kind = "Liver uptake"
assay_value = "3.37 ± 0.85 % ID/g"


Parameter requested: Liver uptake. Apply to each item below.
1. O=C([O-])CN1CCN(CC(=O)[O-])CCN(CC(=O)NCCCC[C@H](NC(=O)CNC(=O)CCCc2ccc(F)cc2)C(=O)NC[C@H]2CC[C@H](C(=O)N[C@@H](Cc3ccc4ccccc4c3)C(=O)NCCCC[C@H](NC(=O)N[C@@H](CCC(=O)O)C(=O)O)C(=O)O)CC2)CCN(CC(=O)[O-])CC1.[68Ga+3] [^68Ga-HTK03085]
2. O=C([O-])CN1CCN(CC(=O)[O-])CCN(CC(=O)NCCCC[C@H](NC(=O)CNC(=O)CCCc2ccc([N+](=O)[O-])cc2)C(=O)NC[C@H]2CC[C@H](C(=O)N[C@@H](Cc3ccc4ccccc4c3)C(=O)NCCCC[C@H](NC(=O)N[C@@H](CCC(=O)O)C(=O)O)C(=O)O)CC2)CCN(CC(=O)[O-])CC1.[68Ga+3] [^68Ga-HTK03089]
3. CCCCCCC(NC(=O)C1CCC(CNC(=O)CN2CCN(CC(=O)[O-])CCN(CC(=O)[O-])CCN(CC(=O)[O-])CC2)CC1)C(=O)NCCCCC(NC(=O)NC(CCC(=O)O)C(=O)O)C(=O)O.[68Ga+3] (centres unmarked) [^68Ga-HTK03026]
4. O=C([O-])CN1CCN(CC(=O)[O-])CCN(CC(=O)NCCCC[C@H](NC(=O)CNC(=O)CCCc2ccc(Cl)cc2)C(=O)NC[C@H]2CC[C@H](C(=O)N[C@@H](Cc3ccc4ccccc4c3)C(=O)NCCCC[C@H](NC(=O)N[C@@H](CCC(=O)O)C(=O)O)C(=O)O)CC2)CCN(CC(=O)[O-])CC1.[68Ga+3] [^68Ga-HTK03055]

Solution:
["1.01 ± 0.29 % ID/g", "1.33 ± 0.27 % ID/g", "0.24 ± 0.06 % ID/g", "3.35 ± 1.08 % ID/g"]

Parameter requested: Liver uptake. Apply to each item below.
1. O=C([O-])CN1CCN(CC(=O)[O-])CCN(CC(=O)NCCCC[C@H](NC(=O)CNC(=O)CCc2ccccc2)C(=O)NC[C@H]2CC[C@H](C(=O)N[C@@H](Cc3ccc4ccccc4c3)C(=O)NCCCC[C@H](NC(=O)N[C@@H](CCC(=O)O)C(=O)O)C(=O)O)CC2)CCN(CC(=O)[O-])CC1.[68Ga+3] [^68Ga-HTK03082]
2. O=C([O-])CN1CCN(CC(=O)[O-])CCN(CC(=O)NCCCC[C@H](NC(=O)CNC(=O)CCCc2ccc(Br)cc2)C(=O)NC[C@H]2CC[C@H](C(=O)N[C@@H](Cc3ccc4ccccc4c3)C(=O)NCCCC[C@H](NC(=O)N[C@@H](CCC(=O)O)C(=O)O)C(=O)O)CC2)CCN(CC(=O)[O-])CC1.[68Ga+3] [^68Ga-HTK03058]
3. COc1ccc(CCCC(=O)NCC(=O)N[C@@H](CCCCNC(=O)CN2CCN(CC(=O)[O-])CCN(CC(=O)[O-])CCN(CC(=O)[O-])CC2)C(=O)NC[C@H]2CC[C@H](C(=O)N[C@@H](Cc3ccc4ccccc4c3)C(=O)NCCCC[C@H](NC(=O)N[C@@H](CCC(=O)O)C(=O)O)C(=O)O)CC2)cc1.[68Ga+3] [^68Ga-HTK03086]
4. Nc1ccc(CCCC(=O)NCC(=O)N[C@@H](CCCCNC(=O)CN2CCN(CC(=O)[O-])CCN(CC(=O)[O-])CCN(CC(=O)[O-])CC2)C(=O)NC[C@H]2CC[C@H](C(=O)N[C@@H](Cc3ccc4ccccc4c3)C(=O)NCCCC[C@H](NC(=O)N[C@@H](CCC(=O)O)C(=O)O)C(=O)O)CC2)cc1.[68Ga+3] [^68Ga-HTK03087]

Solution:
0.39 ± 0.09 % ID/g
3.87 ± 1.00 % ID/g
1.77 ± 0.27 % ID/g
0.44 ± 0.06 % ID/g
